Listed here: items and their measured Bliss excess.
# System: Calu-3 (Lung Adenocarcinoma);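 also: after 72 h of two-drug dosing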
# test protocol: Bliss excess, mean over the matrix (fraction); higher = more synergy

{"compound": "CN(C)CCCOc1ccc(-c2ccc3ncc4c(c3c2)n(C2CCOCC2)c(=O)n4C)cn1 [AZD0156] + CCN(CCO)CCCOc1ccc2c(Nc3cc(CC(=O)Nc4cccc(F)c4)[nH]n3)ncnc2c1 [AZD2811] (first compound max 1 µM, 7x7, partner max 1 µM)", "target or test system": "Calu-3 (Lung Adenocarcinoma)", "Bliss excess": -0.0295}
{"compound": "COc1nnc2ccc(N3CCC(c4ccc(OCCN5CCN(C)C(=O)[C@H]5C)cc4)CC3)nn12 [AZD5153] + CCN(CCO)CCCOc1ccc2c(Nc3cc(CC(=O)Nc4cccc(F)c4)[nH]n3)ncnc2c1 [AZD2811] (first compound max 1 µM, 7x7, partner max 1 µM)", "target or test system": "Calu-3 (Lung Adenocarcinoma)", "Bliss excess": -0.0303}
{"compound": "Cn1cnc2c(F)c(Nc3ccc(Br)cc3Cl)c(C(=O)NOCCO)cc21 [Selumetinib] + C[C@@H]1COCCN1C2=NC(=NC(=C2)C3(CC3)[S@](=N)(=O)C)C4=C5C=CNC5=NC=C4 [AZD6738] (first compound max 10 µM, 7x7, partner max 10 µM)", "target or test system": "Calu-3 (Lung Adenocarcinoma)", "Bliss excess": -0.0295}

Source of measurements: the supplement of paper PMC11061612
